molecular target: human TMEM106B (human, UniProt Q9NUM4 2-274); experiment: cell-based or functional assay; further: test concentration or dose not given here
Reported values of % Protection from CPE for individual entries
Quick reminder: number only, in %, skip the unit.

Guide cases for % Protection from CPE, answers given:
binder: TM-51 (antibody, V domains shown) VH: QVQLQQPGAELVKPGASVKLSCKASGYTFTTYWIDWVKQRPGQGLEWIGNMFPGSSRTNYNEKFKSRATLTVDTSSSTAYMQLSSLTSDDSAVYYCARKEGLWTYGYDGGAWFAYWGQGTLVTVSA VL: DIVMSQSPSSLAVSVGEKVTMSCKSSQSLRNSRTRKNYLAWYQQKPGQSPKLLIYWASTRESGVPDRFTGSGSGTDFTLTISSVQAEDLAIYYCKQSYNLLTFGAGTKLELK
reported_result: 5.4
--
binder: TM-32 (antibody, V domains shown) VH: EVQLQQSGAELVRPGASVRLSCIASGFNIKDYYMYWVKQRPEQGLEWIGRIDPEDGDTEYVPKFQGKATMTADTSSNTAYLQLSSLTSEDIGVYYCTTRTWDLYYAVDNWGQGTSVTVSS VL: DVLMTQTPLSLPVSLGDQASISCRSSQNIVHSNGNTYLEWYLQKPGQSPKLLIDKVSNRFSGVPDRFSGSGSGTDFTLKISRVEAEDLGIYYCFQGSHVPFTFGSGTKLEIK
reported_result: 105
--
binder: TM-76 (antibody, V domains shown) VH: QVTLKESGPGILQPSQTLSLTCSFSGFSLSTSGMGVSWIRKPSGKGLEWLAHIFWDDDKRYNLFLKSRLTVSKDTSSNQVFLMITSVDTTDTATYYCARMGRQRDYFDYWGQGTSLTVSS VL: QIILTQSPAIMSASLGEEITLTCSASLSISYVHWYQQKSGASPKLLIYGTSNLASGVPSRFSGSGSGTFYSLTISSVEAEDAADYYCHQWSIYRTFGGGTKLEMK
reported_result: 89.2
--
binder: TM-5 (antibody, V domains shown) VH: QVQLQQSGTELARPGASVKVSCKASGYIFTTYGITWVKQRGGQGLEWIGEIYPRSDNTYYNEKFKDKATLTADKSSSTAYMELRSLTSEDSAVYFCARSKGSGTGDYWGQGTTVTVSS VL: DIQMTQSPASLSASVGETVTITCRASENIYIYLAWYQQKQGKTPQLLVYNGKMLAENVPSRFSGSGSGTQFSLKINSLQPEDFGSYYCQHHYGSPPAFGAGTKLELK
reported_result: 63.3
--
binder: TM-14 (antibody, V domains shown, mouse hybridoma mAb) VH: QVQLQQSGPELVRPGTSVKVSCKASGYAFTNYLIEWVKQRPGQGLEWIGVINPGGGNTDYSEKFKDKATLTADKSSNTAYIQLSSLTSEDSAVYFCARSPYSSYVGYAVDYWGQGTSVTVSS VL: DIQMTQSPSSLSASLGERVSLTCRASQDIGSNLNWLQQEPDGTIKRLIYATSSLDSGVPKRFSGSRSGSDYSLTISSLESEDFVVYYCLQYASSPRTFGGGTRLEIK
reported_result: 4

Exercise: Assign % Protection from CPE to the following record: TM-24 (antibody, V domains shown) VH: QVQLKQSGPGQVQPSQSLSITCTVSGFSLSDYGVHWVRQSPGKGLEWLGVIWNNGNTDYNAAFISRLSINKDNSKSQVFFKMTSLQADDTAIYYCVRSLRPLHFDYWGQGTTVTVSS VL: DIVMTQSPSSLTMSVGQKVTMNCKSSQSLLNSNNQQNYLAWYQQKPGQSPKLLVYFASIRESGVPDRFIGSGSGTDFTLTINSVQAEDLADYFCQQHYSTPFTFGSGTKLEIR
Solution: 8.4

Exercise: Assign % Protection from CPE to the following record: TM-4 (antibody, V domains shown) VH: EVQVQQSGPVLVKPGASVKMSCKASGYTFTDYYMNWVKQSHGKNLEWIGVINPYNGGTSYHQKFKGKATLTVDKSSSTAYMELNSLTSEDSAVYYCARAATVVAGFDYWGQGTTLTVSS VL: QAVVTQESALTTSPGETVTLTCRSSTGAVTTSNYANWVQEKPDHLFTGLIGGTNNRAPGVPARFSGSLIGDKAALTITGAQTEDEAIYFCVLWYSNHLVFGGGTKLTVL
Solution: 3.7

Exercise: Assign % Protection from CPE to the following record: TM-88 (antibody, V domains shown) VH: EAQLQQSGPVLVKPGASVKMSCKTSGYTFTDYYINWVKQSHGKSLEWIGVINPYSGATYYTQKFKGKATLTVDKSSSTAYMELNSQTSEDSAVYYCARGGYDYGHWYFDVWGTGTTVTVSS VL: ETTVTQSPASLSMAIGEKVTIRCITSSDIDDHMNWYRQKPGEPPEFLISEGNALRPGVPSRFSSSGYGTDFIFTIENILSEDVADYYCLQSDNLPLTFGAGTKLELK
Solution: 78.5

Exercise: Assign % Protection from CPE to the following record: TM-12 (antibody, V domains shown) VH: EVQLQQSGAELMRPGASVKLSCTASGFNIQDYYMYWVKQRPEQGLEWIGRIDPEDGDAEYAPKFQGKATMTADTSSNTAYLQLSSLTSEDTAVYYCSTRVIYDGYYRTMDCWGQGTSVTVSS VL: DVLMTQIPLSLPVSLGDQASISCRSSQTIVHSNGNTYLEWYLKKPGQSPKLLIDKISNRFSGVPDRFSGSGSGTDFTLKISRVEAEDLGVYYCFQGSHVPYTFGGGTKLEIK
Solution: 95.9

Exercise: Assign % Protection from CPE to the following record: TM-9 (antibody, V domains shown) VH: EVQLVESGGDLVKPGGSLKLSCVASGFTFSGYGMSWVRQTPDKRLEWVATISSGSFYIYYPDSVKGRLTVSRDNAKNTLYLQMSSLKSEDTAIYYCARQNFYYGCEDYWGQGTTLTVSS VL: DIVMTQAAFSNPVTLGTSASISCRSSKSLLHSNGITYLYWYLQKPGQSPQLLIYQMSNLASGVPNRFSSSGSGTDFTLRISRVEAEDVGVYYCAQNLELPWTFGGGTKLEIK
Solution: 96.4
